experiment: Equilibrium constant (pKa) was determined.; type: physicochemical
# pKa listing for each entry below
Number only, please.

mol=CCCn1c(=O)c2[nH]c(-c3ccc(Cl)cc3N)nc2n(CCC)c1=O reported_metric=pKa val=8.4
mol=CCCn1c(=O)c2nc(-c3ccccc3N)[nH]c2n(CCC)c1=O reported_metric=pKa val=9.1
mol=CCn1c(=O)c2[nH]c(-c3ccccc3)nc2n(CC)c1=O reported_metric=pKa val=9.1
mol=CCn1c(=O)c2nc(-c3ccc(S(=O)(=O)NCCN(C)C)cc3)[nH]c2n(CC)c1=O reported_metric=pKa val=6.8

Report pKa for `CCCn1c(=O)c2nc(-c3ccc(S(=O)(=O)NCCN(C)C)cc3)[nH]c2n(CCC)c1=O`
6
